Measured IC50 of individual entries
target: p38a/PRAK (Homo sapiens (Human), UniProt Q16539); assay: p38a/PRAK biochemical assay: activation of PRAK by p38, FITC-HSP27 peptide phosphorylation (IMAP FP); conditions: 10-point 1:3 dilution, top dose 300 μM; 60 pM active p38a, 1 nM inactive PRAK, 10 μM ATP, 2 h incubation; read-out: p38a/PRAK Enzyme pIC50 (converted)
ENDPOINT: IC50

| MOLECULE | RECORDED MEASUREMENT |
| --- | --- |
| Cc1cnnc(COc2cc(C)n(-c3cc(-c4ccnc(C(C)(C)O)n4)ncc3C)c(=O)c2Cl)c1 (single isomer, unassigned) [Example 28B] | > 316 µM |
| Cc1cnc(-c2ccc3c(n2)C(C)(O)CC3)cc1-n1c(C)cc(OCc2ncc(F)cc2F)c(Cl)c1=O (single isomer, unassigned) [Example 32B] | > 316 µM |
| Cc1cnc(-c2ccnc([C@@](C)(O)C3CC3)n2)cc1-n1c(C)cc(OCc2ncc(F)cc2F)c(Cl)c1=O (racemic) [Example 6] | 12.6 µM |
| Cc1cnc(-c2cccc(C(C)(C)O)[n+]2[O-])c(F)c1-n1c(C)cc(OCc2ncc(F)cc2F)c(Cl)c1=O (single isomer, unassigned) [Example 62B] | > 316 µM |
| Cc1cnc(-n2ccc(C(C)(C)O)n2)cc1-n1c(C)cc(OCc2ncc(F)cc2F)c(Cl)c1=O (single isomer, unassigned) [Example 9A] | 3.16 µM |
| Cc1cnc(-c2ccnc(C(C)(C)O)n2)c(F)c1-n1c(C)cc(OCc2ncc(F)cc2F)c(Cl)c1=O (single isomer, unassigned) [Example 53A] | > 316 µM |

###

molecular target: p38a/MK2 (Homo sapiens (Human), UniProt P49137+Q16539); assay: p38a/MK2 biochemical assay: activation of MK2 by p38, FITC-HSP27 peptide phosphorylation (IMAP FP); conditions: 10-point 1:3 dilution, top dose 10 μM; 60 pM active p38a, 1 nM inactive MK2, 10 μM ATP, 2 h incubation; read-out: p38a/MK2 (10 μM) Enzyme pIC50 (converted)
Sequence (P49137 46-400): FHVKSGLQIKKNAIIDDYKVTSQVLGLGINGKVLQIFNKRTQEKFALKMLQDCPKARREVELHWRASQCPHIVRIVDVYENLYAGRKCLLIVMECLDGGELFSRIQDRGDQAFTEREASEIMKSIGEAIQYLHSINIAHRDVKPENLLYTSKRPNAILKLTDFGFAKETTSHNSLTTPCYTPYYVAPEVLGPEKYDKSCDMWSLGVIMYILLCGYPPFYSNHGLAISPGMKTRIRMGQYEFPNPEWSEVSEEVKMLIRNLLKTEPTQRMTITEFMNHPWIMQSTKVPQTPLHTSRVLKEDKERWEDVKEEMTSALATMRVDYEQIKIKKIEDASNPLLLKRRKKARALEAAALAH
Sequence (Q16539 whole entry): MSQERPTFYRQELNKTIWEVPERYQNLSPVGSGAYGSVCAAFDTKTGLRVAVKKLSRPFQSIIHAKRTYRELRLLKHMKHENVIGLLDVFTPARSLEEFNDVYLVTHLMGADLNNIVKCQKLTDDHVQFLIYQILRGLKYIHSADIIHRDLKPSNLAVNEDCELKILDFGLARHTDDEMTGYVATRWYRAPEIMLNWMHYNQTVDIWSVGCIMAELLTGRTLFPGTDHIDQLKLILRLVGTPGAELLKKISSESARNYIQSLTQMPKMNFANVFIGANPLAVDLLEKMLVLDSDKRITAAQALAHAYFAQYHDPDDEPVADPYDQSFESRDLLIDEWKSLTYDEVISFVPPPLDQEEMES
ENDPOINT: IC50 (nM)

| MOLECULE | UNIT OF MEASURE | RECORDED MEASUREMENT |
| --- | --- | --- |
| Cc1cnc(-c2cccc([C@H](O)CO)n2)cc1-n1c(C)cc(OCc2ncc(F)cc2F)c(Cl)c1=O (single isomer, unassigned) [Example 34B] | nM | 12.6 |
| Cc1cnc(-c2ccnc([C@@](C)(O)C3CC3)n2)cc1-n1c(C)cc(OCc2ncc(F)cc2F)c(Cl)c1=O (single isomer, unassigned) [Example 6D] | nM | 2510 |
| Cc1cnc(-c2ccnc(C(C)(C)O)n2)cc1-n1c(C)cc(OCc2cc(C(F)F)ccn2)c(Cl)c1=O (single isomer, unassigned) [Example 27A] | nM | 63.1 |

###

Measured IC50 of individual entries
target: p38a/MK2 (Homo sapiens (Human), UniProt P49137+Q16539); experiment: p38a/MK2 biochemical assay: activation of MK2 by p38, FITC-HSP27 peptide phosphorylation (IMAP FP); conditions: 10-point 1:3 dilution, top dose 1 μM; 60 pM active p38a, 1 nM inactive MK2, 10 μM ATP, 2 h incubation; read-out: p38a/MK2 (1 μM) Enzyme pIC50 (converted)
ENDPOINT: IC50 (nM)

| COMPOUND | UNIT OF MEASURE | COMPARATIVE SIGN | RECORDED MEASUREMENT |
| --- | --- | --- | --- |
| [2H]C([2H])(Oc1cc(C)n(-c2c(C)cnc(-c3ccnc(C(C)(C)O)c3F)c2F)c(=O)c1Cl)c1ncc(F)cc1F (single isomer, unassigned) [Example 65A] | nM | = | 3.98 |
| Cc1cnc(-c2ccnc(C(O)C3CC3)n2)cc1-n1c(C)cc(OCc2ncc(F)cc2F)c(Cl)c1=O (single isomer, unassigned) [Example 35A] | nM | = | 50.1 |
| Cc1ncc(-c2ccnc(C(C)(C)O)n2)cc1-n1c(C)cc(OCc2ncc(F)cc2F)c(Cl)c1=O (single isomer, unassigned) [Example 45B] | nM | = | 501 |
| Cc1cnc(-c2cccc(C(C)(C)O)n2)c(F)c1-n1c(C)cc(OCc2ncc(F)cc2F)c(Cl)c1=O (single isomer, unassigned) [Example 63B] | nM | = | 0.316 |
| Cc1cnc(-c2nc(C(C)(C)O)n(C)n2)cc1-n1c(C)cc(OCc2ncc(F)cc2F)c(Cl)c1=O (single isomer, unassigned) [Example 42B] | nM | > | 1000 |
| Cc1cnc(-n2ccc(C(=O)NC3CC3)n2)cc1-n1c(C)cc(OCc2ncc(F)cc2F)c(Cl)c1=O (single isomer, unassigned) [Example 44B] | nM | > | 1000 |
| Cc1cnc(-n2ccc(C(C)(C)O)n2)c(F)c1-n1c(C)cc(OCc2ncc(F)cc2F)c(Cl)c1=O (single isomer, unassigned) [Example 54A] | nM | > | 1000 |
| Cc1cnc(-c2ccc(F)c(C(C)(C)O)n2)cc1-n1c(C)cc(OCc2ncc(F)cc2F)c(Cl)c1=O (single isomer, unassigned) [Example 24A] | nM | = | 1.58 |
| [2H]C([2H])(Oc1cc(C)n(-c2c(C)cnc(-c3ccnc(CC4(O)CC4)n3)c2F)c(=O)c1Cl)c1ncc(F)cc1F (single isomer, unassigned) [Example 61A] | nM | > | 100 |
| Cc1c(-n2c(C)cc(OCc3ncc(F)cc3F)c(Cl)c2=O)ccnc1-n1ccc(C(C)(C)O)n1 (single isomer, unassigned) [Example 52A] | nM | > | 1000 |
| Cc1cnc(-c2ccnc(C(C)(C)O)c2F)cc1-n1c(C)cc(OCc2ncc(F)cc2F)c(Cl)c1=O (atropisomer, axis not shown) [Example 56B] | nM | > | 1000 |
| Cc1cnc(-c2ccnc(C(C)(C)O)n2)c(F)c1-n1c(C)cc(OCc2ncc(F)cc2F)c(Cl)c1=O (single isomer, unassigned) [Example 53B] | nM | = | 0.126 |

###

molecular target: p38a/MK2 (Homo sapiens (Human), UniProt P49137+Q16539); experiment: p38a/MK2 biochemical assay: activation of MK2 by p38, FITC-HSP27 peptide phosphorylation (IMAP FP); details: 10-point 1:3 dilution, top dose 1 μM; 60 pM active p38a, 1 nM inactive MK2, 10 μM ATP, 2 h incubation; read-out: p38a/MK2 (1 μM) Enzyme pIC50 (converted)

| MOLECULE | COMPARATIVE SIGN | IC50 (nM) |
| --- | --- | --- |
| Cc1sc(-c2ccnc(C(C)(C)O)n2)cc1-n1c(C)cc(OCc2ncc(F)cc2F)c(Cl)c1=O (single isomer, unassigned) [Example 33A] | = | 25.1 |
| Cc1cc(OCc2ncc(F)cc2F)c(Cl)c(=O)n1-c1cc(-c2ccnc(C(C)(C)O)n2)ncc1C1CC1 (single isomer, unassigned) [Example 40B] | > | 1000 |
| [2H]C([2H])(Oc1cc(C)n(-c2c(C)cnc(-c3ccnc(C(O)(C([2H])([2H])[2H])C([2H])([2H])[2H])n3)c2F)c(=O)c1Cl)c1ncc(F)cc1F (single isomer, unassigned) [Example 67B] | = | 79.4 |
| Cc1cnc(-c2nc(C(C)(C)O)n(C)n2)cc1-n1c(C)cc(OCc2ncc(F)cc2F)c(Cl)c1=O (single isomer, unassigned) [Example 42A] | = | 501 |
| Cc1cnc(-c2cccc(C(C)(O)CO)n2)cc1-n1c(C)cc(OCc2ncc(F)cc2F)c(Cl)c1=O (single isomer, unassigned) [Example 36C] | > | 1000 |

###

molecular target: p38a/MK2 (Homo sapiens (Human), UniProt P49137+Q16539); experiment: p38a/MK2 biochemical assay: activation of MK2 by p38, FITC-HSP27 peptide phosphorylation (IMAP FP); details: 10-point 1:3 dilution, top dose 10 μM; 60 pM active p38a, 1 nM inactive MK2, 10 μM ATP, 2 h incubation; read-out: p38a/MK2 (10 μM) Enzyme pIC50 (converted)
Measured IC50 of individual entries

| COMPOUND | TESTED TARGET | UNIT OF MEASURE | IC50 |
| --- | --- | --- | --- |
| Cc1cc(COc2cc(C)n(-c3cc(-c4ccnc(C(C)(C)O)n4)ncc3C)c(=O)c2Cl)ncc1F (single isomer, unassigned) [Example 22A] | p38a/MK2 (Homo sapiens (Human), UniProt P49137+Q16539) | nM | 31.6 |
| Cc1cnc(-c2ccnc(C(C)(C)CO)n2)cc1-n1c(C)cc(OCc2ncc(F)cc2F)c(Cl)c1=O (single isomer, unassigned) [Example 4B] | p38a/MK2 (Homo sapiens (Human), UniProt P49137+Q16539) | nM | 794 |
| Cc1cnc(-c2ccnc(C3CC(O)C3)n2)cc1-n1c(C)cc(OCc2ncc(F)cc2F)c(Cl)c1=O (single isomer, unassigned) [Example 26B] | p38a/MK2 (Homo sapiens (Human), UniProt P49137+Q16539) | nM | 1580 |
| Cc1cnc(-c2ccc3c(n2)C(C)(O)CC3)cc1-n1c(C)cc(OCc2ncc(F)cc2F)c(Cl)c1=O (single isomer, unassigned) [Example 32C] | p38a/MK2 (Homo sapiens (Human), UniProt P49137+Q16539) | nM | 63.1 |
| Cc1cnc(-c2ccnc(C(C)(C)O)n2)cc1-n1c(C)cc(OCc2cc(C(F)F)ccn2)c(Cl)c1=O (single isomer, unassigned) [Example 27B] | p38a/MK2 (Homo sapiens (Human), UniProt P49137+Q16539) | nM | 5010 |
| Cc1cnc(-c2ccc3c(n2)[C@H](O)CC3)cc1-n1c(C)cc(OCc2ncc(F)cc2F)c(Cl)c1=O (single isomer, unassigned) [Example 18A] | p38a/MK2 (Homo sapiens (Human), UniProt P49137+Q16539) | nM | 158 |
